testDetails: AP1 Signaling Pathway (AID 357);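 note: ME-180 reporter cells stimulated with EGF at its EC50 level; % is set by controls: 0 for no effect and ±100 for the full control effect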
measurementParameters: ME-180 (cervical carcinoma) AP-1-bla reporter, EGF-induced, beta-lactamase ratio, 5 h; at 17.2 µM (top of the series) unless noted
Records with an inconclusive call do not appear.
Listing of recorded activity change, negative = inhibition by entry.
measure: activity change, negative = inhibition (%)

INSERT INTO measurements (compound, numericresult) VALUES
  ('CCCC(=O)Nc1sc2c(c1C#N)CCCC2', -16.2),
  ('COc1ccc2c(C)nc(Nc3nc(C)cc(C)n3)nc2c1', -4.83),
  ('C#CC1CN(Cc2ccccc2)CC(C#C)N1C (configuration not stated)', 9.35),
  ('Cn1c(N2CCOCC2)nc2c1c(=O)n(Cc1ccc(Cl)c(Cl)c1)c(=O)n2C', -18.7),
  ('CCOC(=O)CC1=NC(=O)CS1', 2.69),
  ('c1cc2c(cc1C1=Nn3c(nnc3C3CCCCC3)SC1)OCO2', -22.3),
  ('CCN(CC)CCCN1C(=O)C(=O)/C(=C(/O)c2ccccc2)C1c1cc(OC)ccc1OC (configuration not stated)', 3.34),
  ('Cc1ccc(C2/C(=C(/O)c3ccc(OC(C)C)cc3)C(=O)C(=O)N2CCN2CCOCC2)cc1 (configuration not stated)', 0.482),
  ('COc1ccc(OC)c(C2NC(=O)c3sc(=S)n(-c4ccccc4)c3N2)c1 (configuration not stated)', -13.3),
  ('COc1ccc(-c2nn3c(-c4ccccn4)nnc3s2)cc1OC', -16.2),
  ('Nc1nonc1OCCc1ccccc1', 2.66),
  ('CCCC1Cc2c(sc3ncnc(N)c23)CO1 (configuration not stated)', -16.4);

====

testDetails: Cellular Toxicity (caspase-3) N2a (AID 665);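 note: compound exposure lasted 16 h at 37 °C before readout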
measurementParameters: N2a cells, luminescence; caspase-3 activation; series mostly up to 92.2 µM
The source made the active and inactive calls. Calls come from the whole dose curve; as a rule, active = well fitted activation curve with a large enough effect; inconclusive = small, poorly fitted or top-dose-only effect; inactive = flat fitted curve, though single readings scatter.
Labels: Yes = active, No = inactive

INSERT INTO measurements (compound, labelvalue) VALUES
  ('C=CC(=O)OCCOCCOC(=O)C=C', 'No'),
  ('CN1[C@H]2CC(OC(=O)[C@H](CO)c3ccccc3)C[C@H]1[C@H]1O[C@H]12 (stereo not given in full)', 'No'),
  ('c1ccc2c(c1)-c1cccc3c1c-2cc1ccccc13', 'No'),
  ('CNc1ccc(O)cc1', 'No'),
  ('c1cc(OCC2CO2)cc(OCC2CO2)c1 (stereo not given)', 'No'),
  ('O=[N+]([O-])c1cc([N+](=O)[O-])c2ccc(S(=O)(=O)O)cc2c1O', 'No'),
  ('c1ccc2c(c1)ccc1cc3c(ccc4ccccc43)cc12', 'No'),
  ('CN(C)c1ccc(C2(c3ccc(N(C)C)cc3)OC(=O)c3cc(N(C)C)ccc32)cc1', 'No'),
  ('Nc1ccc2cc3ccccc3cc2c1', 'No'),
  ('C=CC(=O)OCC(CO)(COC(=O)C=C)COC(=O)C=C', 'Yes'),
  ('O=C(/C=C/c1ccc(O)c(O)c1)OC1C[C@](O)(C(=O)O)C[C@@H](O)[C@H]1O (stereo not given in full)', 'No'),
  ('CCC(C)Nc1ccc(NC(C)CC)cc1 (stereo not given)', 'No'),
  ('ClC1=C(Cl)C(Cl)(Cl)C(Cl)=C1Cl', 'No'),
  ('CC/C(=C(\c1ccccc1)c1ccc(OCCN(C)C)cc1)c1ccc(O)cc1', 'No'),
  ('O=C=Nc1ccc(Cc2ccc(N=C=O)cc2)cc1', 'No'),
  ('O=Cc1ccc(Cl)c(Cl)c1', 'No'),
  ('Cc1ccc(S(=O)(=O)Oc2ccc(N=Nc3ccc(-c4ccc(N=Nc5c(O)ccc6cc(S(=O)(=O)O)cc(S(=O)(=O)O)c56)c(C)c4)cc3C)cc2)cc1', 'No'),
  ('Cc1cc(Nc2ccc(O)cc2)ccc1N', 'No'),
  ('CC(=O)Nc1ccc(C(=O)CCl)cc1', 'No'),
  ('Cc1cccc(O)c1C', 'No');
